# Procedure Text: In vivo microdialysis in the dorsolateral striatum with LC-MS
# Conditions Used: male, Sprague-Dawley, rat, in vivo, ip, 10 mg/kg, 10 mg/kg i.p., 60 min, read-out: striatal BBI-11008 concentration at 60 min post-injection (mean)
Non-standard residues stand in square brackets, D forms with d. Residues, ends and D or L forms follow the SMILES beside them. *: point of attachment. βGlc = OC[C@H]1O[C@@H](*)[C@H](O)[C@@H](O)[C@@H]1O; Nle = CCCC[C@H](N)C(=O)O
Recorded Endpoint: level at time molar at 1 h

Endpoint output: level at time molar at 1 h of CCCC[C@H](NC(=O)[C@H](CCC(=O)O)NC(=O)[C@H](Cc1ccccc1)NC(=O)[C@@H](C)NC(=O)[C@@H](N)Cc1ccc(O)cc1)C(=O)N[C@@H](CCCC)C(=O)N[C@H](C(N)=O)[C@@H](C)O[C@@H]1O[C@H](CO)[C@@H](O)[C@H](O)[C@H]1O [BBI-11008, H2N-YaFE-Nle-Nle-T-(β-D-Glc)] (H-Y[dA]FE[Nle][Nle]T(βGlc)-NH2) . Value? ~0.037 nM
